- System: STING activation (IFNβ release) in iBMDMs
- procedure-summary: IFNβ release ELISA after STING ligand (or LPS) stimulation, iBMDMs
- Type: cell-based, mouse
- condition-summary: iBMDMs; 3′3′-cGAMP 10 μg/ml, 16 hours; compound 10 μM
Counter-ions that a name gives are not always drawn.
Threshold rule: fold increase in IFN-β release greater than or equal to 2 fold is TRUE; below that, FALSE.

{"columns": ["compound", "answer-label"],
 "data": [
  ["N#Cc1c(O)c2c(-c3ccc(-c4ccccc4O)cc3)csc2[nH]c1=O [A-769662]", "TRUE"],
  ["CC[C@@H]1/C=C/C=C/C[C@H](C)[C@H](O)[C@](C)(O)C(=O)[C@H](C)[C@@H](O)[C@H](C)C(=O)[C@H](C)[C@@H](O)[C@H](C)/C=C/C(=O)O[C@H]2[C@@H](C)[C@@H](CC1)O[C@@]1(CC[C@@H](C)[C@@H](C[C@H](C)O)O1)[C@@H]2C [Oligomycin A]", "TRUE"],
  ["Cc1cc([C@@H](C)Nc2ccccc2C(=O)O)c2nc(N3CCOCC3)cc(=O)n2c1 [AZD6482]", "TRUE"],
  ["Nc1nc(N)c2nc(-c3ccccc3)c(N)nc2n1 [Triamterene]", "FALSE"],
  ["CCOc1cc(N2CCC(O)CC2)ccc1Nc1ncc2c(n1)N(C)c1ccccc1C(=O)N2C [XMD8-92]", "TRUE"],
  ["CN[C@@H](C)C(=O)N[C@H](C(=O)N1CCC[C@H]1C(=O)Nc1snnc1-c1ccccc1)C1CCCCC1 [GDC-0152]", "FALSE"],
  ["CNC(=O)c1cc(Oc2ccc(NC(=O)Nc3ccc(Cl)c(C(F)(F)F)c3)cc2)ccn1 [Sorafenib]", "FALSE"],
  ["O=C1CC(=O)c2c(Cl)c(Cl)c(Cl)c(Cl)c21 [TCID]", "FALSE"],
  ["CN(C)Cc1ccc(-c2nc3cccc4c3n2CCNC4=O)cc1 [AG-14361]", "TRUE"],
  ["O=S(=O)(CC1CS1)c1ccc(Oc2ccccc2)cc1 (stereo not shown) [SB-3CT]", "FALSE"],
  ["CC#CCn1c(N2CCC[C@@H](N)C2)nc2c1c(=O)n(Cc1nc(C)c3ccccc3n1)c(=O)n2C [Linagliptin]", "TRUE"],
  ["CCOC(=O)c1ccc(N2NC(=O)/C(=C/c3ccc([N+](=O)[O-])o3)C2=O)cc1 [PYR-41]", "FALSE"],
  ["COc1ccc2c(c1)c(CC(=O)N1CCOCC1)c(C)n2C(=O)c1ccc(Cl)cc1 [BML-190]", "FALSE"],
  ["Cc1cccc(CC(=O)N2CCc3c2ccc(-c2cn(C)c4ncnc(N)c24)c3F)n1 [GSK2656157]", "FALSE"],
  ["C=CCc1cccc(/C=N/NC(=O)CN2CCN(Cc3ccccc3)CC2)c1O [PAC-1]", "FALSE"],
  ["Cc1cc(C(C)(C)C)c(O)c(C)c1CC1=NCCN1 [Oxymetazoline HCl]", "FALSE"]
]}

Reference source for all entries: patent US11179412B2
